Could you please report measured % inhibition of SMAD7 mRNA expression for the items listed next?
Tested on: human SMAD7 mRNA
Test: Antisense inhibition of human SMAD7 mRNA expression in Hep3B cells by 3-10-3 cEt gapmers, 10,000 nM, electroporation (Example 2)
Assay type: cell-based
Conditions: Hep3B cells, electroporation with 10,000 nM antisense oligonucleotide, approximately 24 hours, primer probe set RTS5062, relative to untreated control cells
Experimental: Antisense oligonucleotides were designed to target human SMAD7 mRNA and were tested for their effects on SMAD7 mRNA expression in vitro. […] After a treatment period of approximately 24 hours, RNA was isolated from the cells and SMAD7 mRNA levels were measured by quantitative real-time PCR. […] SMAD7 mRNA levels were adjusted according to total RNA content, as measured by RIBOGREEN®. […]
Strand notation (5' to 3'): a small letter for the sugar, then the base; units joined by * are phosphorothioate-linked, units joined directly phosphodiester-linked; [ ] holds rarer units or linkages, { } end groups; capitals alone tell only the bases. k = constrained ethyl (cEt); [5mC] = 5-methylcytosine; d = 2'-deoxy (DNA)
Dear colleague, please return just the value in %, with no unit written.

Qu. I would be grateful if you could share the reported % inhibition of SMAD7 mRNA expression for 798729 (antisense kG*kA*k[5mC]*d[5mC]*dT*dT*dT*dG*dG*d[5mC]*dA*d[5mC]*d[5mC]*kT*k[5mC]*kG) [compound 798729] .
Ans. 51

Qu. Now the same for 799265 (antisense k[5mC]*kT*kT*d[5mC]*d[5mC]*dA*dT*d[5mC]*d[5mC]*dA*dA*d[5mC]*dT*k[5mC]*kT*k[5mC]) [compound 799265]
Ans. 3

Qu. Now the same for 798743 (antisense kT*kG*k[5mC]*d[5mC]*dG*d[5mC]*dT*d[5mC]*d[5mC]*dT*dT*d[5mC]*dA*kG*kT*kT) [compound 798743]
Ans. 19

Qu. Now the same for 799398 (antisense k[5mC]*kT*kT*dG*dG*dA*dA*dA*dA*dT*dG*dA*dA*k[5mC]*kT*kT) [compound 799398]
Ans. 48

Qu. Now the same for 799030 (kG*k[5mC]*kA*dG*dG*dA*dG*dA*dG*dA*d[5mC]*dA*d[5mC]*k[5mC]*kG*k[5mC]; antisense) [compound 799030]
Ans. 52

Qu. Now the same for 799010 (k[5mC]*kG*kT*dT*dG*dT*d[5mC]*dT*d[5mC]*d[5mC]*d[5mC]*d[5mC]*dA*kT*k[5mC]*kT; antisense) [compound 799010]
Ans. 57

Qu. Now the same for 799323 (antisense k[5mC]*k[5mC]*kA*dG*dG*dA*dG*dG*dG*dT*dA*dT*dG*k[5mC]*kA*k[5mC]) [compound 799323]
Ans. 60

Qu. Now the same for 798945 (antisense k[5mC]*kA*k[5mC]*dA*dA*dA*d[5mC]*dG*dA*dG*dG*dA*d[5mC]*kG*kA*kG) [compound 798945]
Ans. 19

Qu. Now the same for 798703 (antisense kG*kT*k[5mC]*d[5mC]*dG*dT*d[5mC]*dG*d[5mC]*d[5mC]*d[5mC]*d[5mC]*dT*kT*k[5mC]*kT) [compound 798703]
Ans. 68

Qu. Now the same for 799071 (antisense kG*kG*kA*dA*dG*dG*dG*dA*dA*dT*dA*dA*dG*kA*k[5mC]*kA) [compound 799071]
Ans. 44

Qu. Now the same for 799347 (kA*kA*kG*dG*dA*dG*dT*dT*dT*d[5mC]*dA*dG*dG*kG*kT*k[5mC]; antisense) [compound 799347]
Ans. 59

Qu. Now the same for 798655 (kG*kG*k[5mC]*d[5mC]*d[5mC]*dG*d[5mC]*dG*d[5mC]*d[5mC]*d[5mC]*dT*dG*k[5mC]*kG*k[5mC]; antisense) [compound 798655]
Ans. 21
